System: HL-60
ASSAY_NAME: NCI tumour cell line growth inhibition, 48 h
Active and inactive are the calls of the source. No stated cut-off is given here; in the data, active = GI50 up to about 1.1 µM and inactive = higher.
Catalogue of GI50 readings, one per entry.

COMPOUND	GI50
CC1=C(C)SC(=C2Sc3c(n(C)c(=O)[nH]c3=O)S2)S1	> 100 µM (inactive)
O[C@@]12Cc3c([nH]c4ccccc34)[C@@H]3Oc4c(-c5ccccc5)ccc5c4[C@@]31CCN(CC1CC1)[C@@H]2C5	2.06 µM (inactive)
CC1=C(N2CC2)C(=O)c2nc3n(c2C1=O)CCC3O (stereo not drawn)	0.566 µM (active)
Nc1nc(Cl)c(N)c(NCC2(CO)CC(OCc3ccccc3)C2)n1 (stereo not drawn)	> 100 µM (inactive)
COC(=O)c1ccc(CCc2cc(O)c(Br)cc2O)cc1	1.86 µM (inactive)
CC1(c2ccccc2Cl)C(C#N)C(=O)NC(=O)C1C#N (stereo not drawn)	21.6 µM (inactive)
c1cc(CSc2ncnc3[nH]cnc23)ccn1	67.9 µM (inactive)
Cc1ccc(Nc2nc(C)c(C(=O)CC(=O)C(=O)Nc3c(C)cccc3C(C)(C)C)s2)cc1	> 100 µM (inactive)
O=C(O)Cc1cc(Cl)ccc1O	> 100 µM (inactive)
CC(=O)O[C@@H]1CO[C@H]2O[C@H]3[C@@H](C(C=O)=C[C@H](O)[C@@H]4C5=C(C(C)C)CC[C@]5(C)CC[C@@]34C)[C@@]2(O)C1=O	0.0175 µM (active)
Cc1cc(-c2nc3cccc(O)c3s2)ccc1N	22.3 µM (inactive)
O=C1/C(=C/Cc2ccco2)N=C(c2ccccc2)N1c1nc2c(Cl)cc(Cl)cc2s1	20.9 µM (inactive)
[O-][S@@+]1c2ccc3ccccc3c2N[C@@H]2[C@H]1[C@H]1C=C[C@@H]2C1	24 µM (inactive)
CC(CC[C@@]1(O)OC2C[C@H]3[C@@H]4CC[C@H]5CC(OC6OC(CO)C(OC7OC(CO)C(O)C(OC8OCC(O)C(O)C8O)C7OC7OC(CO)C(O)C(O)C7O)C(O)C6O)[C@H](O)CC5(C)[C@H]4CCC3(C)C2[C@@H]1C)COC1OC(CO)C(O)C(O)C1O (stereo partly drawn)	6.9 µM (inactive)
O=C1CCC[C@]2(CCCC(=O)N2)C1	> 100 µM (inactive)
C[n+]1c(-c2ccc(/C=N\NC(=O)c3ccc(C(=O)N/N=C/c4ccc(-c5cn6ccsc6[n+]5C)cc4)cc3)cc2)cn2ccsc21	16.5 µM (inactive)
NC(Cc1ccc(OCc2ccccc2)cc1)C(=O)NC(Cc1ccccc1)C(=O)Oc1c(Cl)c(Cl)c(Cl)c(Cl)c1Cl (stereo not drawn)	69.5 µM (inactive)
COc1ccc(/C=C2\CCC(CNc3ccc(OC)cc3)C2=O)cc1 (stereo not drawn)	3.09 µM (inactive)
